Experiment: CEETOX_H295R_ESTRONE: CeeTox H295R High-throughput Steroidogenesis Assay for Estrone (AID 2283441);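 note: estrone secreted into medium measured by LC-MS/MS after dansyl derivatization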
Settings: actives raise or lower the signal
Procedure: CEETOX_H295R is a cell-based, multiplexed-readout assay that uses H295R, a human adrenal gland cell line, with measurements taken at 48 hours after chemical dosing in a 96-well plate.CEETOX_H295R_ESTRONE is one of 23 assay component(s) measured or calculated from the CEETOX_H295R assay. […] This assay endpoint, CEETOX_H295R_ESTRONE, was analyzed with bidirectional fitting relative to DMSO as the negative control and baseline of activity. […]
The source made the active and inactive calls. Rule for the calls: active = hit-call score of the fitted dose curve at least 0.9, where 1 is the maximum; inactive = score below 0.9.
Possible outcomes: Yes = active, No = inactive

>>> classification("c1ccc(OCCOc2ccccc2)cc1")
"No"
>>> classification("CCCCCC(=O)O[C@]1(C(C)=O)CC[C@H]2[C@@H]3CCC4=CC(=O)CC[C@]4(C)[C@H]3CC[C@@]21C")
"Yes"
>>> classification("CC(=O)C1=C(C)[C@@H]2C[C@@]3(C1)[C@H](C)CC[C@H]3C2(C)C")
"No"
>>> classification("CCCc1ccc(O)cc1")
"No"
>>> classification("OCC=Cc1ccccc1")
"No"
>>> classification("CCCCCCCCCCCCN1CCOCC1")
"No"
>>> classification("CC(=O)c1ccc2ccccc2c1")
"No"

----------
read-out: Vascular cell adhesion molecule 1 (VCAM1), VCAM1 (gene 7412); assay: BSK_CASM3C_VCAM1: BioMAP Diversity Plus: CASM3C Assay for Vascular cell adhesion molecule 1 (VCAM1) Biomarker Activity (AID 2283055); conditions: primary human coronary artery smooth muscle cells; actives raise or lower the signal;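 note: VCAM-1 protein level quantified by ELISA on the cells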
The source made the active and inactive calls. How the source made its calls: active means hit-call score of the fitted dose curve at least 0.9, where 1 is the maximum; inactive means score below 0.9.
Possible outcomes: label 1 = active, label 0 = inactive

>>> classification("CCCCN(CCO)CCO")
"label 0"
>>> classification("O=C(c1ccc(OCCN2CCCCC2)cc1)c1c(-c2ccc(O)cc2)sc2cc(O)ccc12")
"label 0"
>>> classification("C=C(F)C(=O)OC(C(F)(F)F)C(F)(F)F")
"label 0"
>>> classification("CCCCCCCCCCCCS")
"label 1"
>>> classification("O=S1(=O)CC(Cl)(Cl)C(Cl)(Cl)C1")
"label 1"
>>> classification("CCOC(=O)C=Cc1ccccc1")
"label 0"
>>> classification("CC(=O)OC(C)(C)C1CC=C(C)CC1 (centres undefined)")
"label 1"
>>> classification("CC(=O)c1ccc(C)cc1")
"label 0"
>>> classification("OCCN1CCOCC1")
"label 0"
>>> classification("Nc1ccc(N)c([N+](=O)[O-])c1")
"label 0"
>>> classification("COC(=O)c1ccc(C(=O)OC)cc1")
"label 0"
>>> classification("NC(=O)c1c(Cl)cccc1Cl")
"label 0"
>>> classification("CCn1cc(C(=O)O)c(=O)c2ccc(C)nc21")
"label 0"
>>> classification("O=C(O)C(F)(F)C(F)(F)C(F)(F)C(F)(F)C(F)(F)C(F)(F)C(F)(F)C(F)F")
"label 0"

----------
read-out: CYP2C9 (gene 1559); test: LTEA_HepaRG_CYP2C9: Life Technologies and Expression Analysis (LTEA) Assay for CYP2C9 using HepaRG (AID 2283484); settings: mRNA level, 48 h; actives raise or lower the signal
Calls of active or inactive are those of the source. Rule for the calls: active = hit-call score of the fitted dose curve at least 0.9, where 1 is the maximum; inactive = score below 0.9.
Possible outcomes: Yes (active), No (inactive)

>>> classification("O=C(c1ccc(OCCN2CCCCC2)cc1)c1c(-c2ccc(O)cc2)sc2cc(O)ccc12")
"Yes"
>>> classification("CCCCOCCOCCO")
"No"
>>> classification("C#C[C@]1(O)CC[C@H]2[C@@H]3CCc4cc(O)ccc4[C@H]3CC[C@@]21C")
"No"
>>> classification("COC(=O)c1ccc(C(=O)OC)cc1")
"No"

Ref: PubChem BioAssay (EPA / NIEHS)
